System: E. coli ATCC 25922
Type: cell-based, Escherichia coli
Experimental: The minimum inhibitory concentration (MIC) of Tritrp1 and its Trp-substituted analogs against E. coli ATCC 25922 was measured by the standard broth microdilution method. Bacteria (5 × 10^5 CFU/mL) were incubated overnight at 37 °C in Mueller-Hinton broth (MHB) and in the presence of peptides diluted in a two-fold concentration series ranging from 0.25–128 µM in a 96-well polypropylene plate. […]
Ends that are not written are not given here.
measuredParameter: MBC

{"substance": "VRRFPAAAPFLRR-NH2 [A-Tritrp]", "measuredParameter": "MBC", "assayValue": ">128 µM"}
{"substance": "VRRFPAAWPFLRR-NH2 [Peptide W67A]", "measuredParameter": "MBC", "assayValue": "64 to 128 µM"}
{"substance": "VRRFPWYYPFLRR-NH2 [Peptide W78Y]", "measuredParameter": "MBC", "assayValue": "16 µM"}
{"substance": "VRRFPWAWPFLRR-NH2 [Peptide W7A]", "measuredParameter": "MBC", "assayValue": "16 µM"}
{"substance": "VRRFPWWYPFLRR-NH2 [Peptide W8Y]", "measuredParameter": "MBC", "assayValue": "4 µM"}
{"substance": "VRRFPWAAPFLRR-NH2 [Peptide W78A]", "measuredParameter": "MBC", "assayValue": "64 to 128 µM"}
{"substance": "VRRFPYWWPFLRR-NH2 [Peptide W6Y]", "measuredParameter": "MBC", "assayValue": "16 µM"}
{"substance": "VRRFPAWWPFLRR-NH2 [Peptide W6A]", "measuredParameter": "MBC", "assayValue": "32 to 64 µM"}
{"substance": "VRRFPWYWPFLRR-NH2 [Peptide W7Y]", "measuredParameter": "MBC", "assayValue": "8 µM"}
{"substance": "VRRFPAWAPFLRR-NH2 [Peptide W68A]", "measuredParameter": "MBC", "assayValue": "64 to 128 µM"}
{"substance": "VRRFPWWAPFLRR-NH2 [Peptide W8A]", "measuredParameter": "MBC", "assayValue": "8 µM"}
{"substance": "VRRFPYWYPFLRR-NH2 [Peptide W68Y]", "measuredParameter": "MBC", "assayValue": "16 µM"}
{"substance": "VRRFPYYYPFLRR-NH2 [Y-Tritrp]", "measuredParameter": "MBC", "assayValue": "16 to 32 µM"}
{"substance": "VRRFPYYWPFLRR-NH2 [Peptide W67Y]", "measuredParameter": "MBC", "assayValue": "32 µM"}
